Biological target: Human recombinant PDE2A (hPDE2A) (Homo sapiens, UniProt O00408)
Construct: His tag (inferred from metal chelate purification); made in house; host or cells: Sf9 insect cells (baculovirus)
Sequence (O00408 whole entry): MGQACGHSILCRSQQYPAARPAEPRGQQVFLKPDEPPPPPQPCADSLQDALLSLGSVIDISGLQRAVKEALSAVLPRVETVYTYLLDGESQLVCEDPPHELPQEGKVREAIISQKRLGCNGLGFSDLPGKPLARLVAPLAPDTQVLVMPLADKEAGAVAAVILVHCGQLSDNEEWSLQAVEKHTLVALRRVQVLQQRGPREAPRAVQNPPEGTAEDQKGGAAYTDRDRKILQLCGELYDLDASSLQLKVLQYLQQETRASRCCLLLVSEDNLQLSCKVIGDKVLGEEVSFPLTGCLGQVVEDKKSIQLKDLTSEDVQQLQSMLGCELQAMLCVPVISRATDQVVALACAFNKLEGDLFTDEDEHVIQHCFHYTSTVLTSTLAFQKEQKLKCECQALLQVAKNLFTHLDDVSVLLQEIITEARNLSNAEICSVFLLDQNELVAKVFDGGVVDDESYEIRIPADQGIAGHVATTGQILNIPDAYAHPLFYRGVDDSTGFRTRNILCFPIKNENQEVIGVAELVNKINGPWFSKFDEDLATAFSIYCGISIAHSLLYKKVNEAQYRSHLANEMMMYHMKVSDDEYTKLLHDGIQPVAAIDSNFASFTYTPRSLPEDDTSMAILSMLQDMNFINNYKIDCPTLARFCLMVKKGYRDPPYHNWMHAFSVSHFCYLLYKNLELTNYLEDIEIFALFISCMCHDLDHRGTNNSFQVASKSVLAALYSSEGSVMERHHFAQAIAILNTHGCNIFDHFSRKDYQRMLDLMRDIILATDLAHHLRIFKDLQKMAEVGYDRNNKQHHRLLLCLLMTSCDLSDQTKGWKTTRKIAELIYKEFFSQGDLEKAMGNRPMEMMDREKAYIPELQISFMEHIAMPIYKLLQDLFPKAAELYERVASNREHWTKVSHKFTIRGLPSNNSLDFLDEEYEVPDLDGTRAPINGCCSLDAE
Test: In vitro assay PDE2A (SPA, 3H-cGMP hydrolysis)
Type: biochemical
Conditions: human recombinant PDE2A; read-out: hPDE2A Emax
observation_type: Emax (%)
Could you give me the number in %? Just the number is fine.

-- ask What is its Emax for Human recombinant PDE2A (hPDE2A) (Homo sapiens, UniProt O00408)? Entry: Cc1nc2cccc(C(=O)N3CC[C@@H](C)[C@H](c4cc(C(F)F)nc5ncnn45)C3)c2o1 [Compound 50]
-- reply 100

-- ask Please provide the recorded Emax for C[C@@H]1CCN(C(=O)c2cc3ccccc3n2C)C[C@H]1c1cc(C(F)F)nc2ncnn12 [Compound 114] , tested on Human recombinant PDE2A (hPDE2A) (Homo sapiens, UniProt O00408).
-- reply 100

-- ask Query for Human recombinant PDE2A (hPDE2A) (Homo sapiens, UniProt O00408): what Emax does the record show for COc1c(C)cc(C(=O)N2CC[C@@H](C)[C@H](c3cc(C(F)F)nc4ncnn34)C2)cc1C [Compound 77] ?
-- reply 101

-- ask I'm curious: which Emax was measured for Cc1ccc(C(=O)N2CC[C@@H](C)[C@H](c3cc(C(F)F)nc4ncnn34)C2)c(C)n1 [Compound 143] tested on Human recombinant PDE2A (hPDE2A) (Homo sapiens, UniProt O00408)?
-- reply 97

----------
Provide the reported receptor occupancy at 10 mg/kg of each item.
Biological target: PDE2A (Rattus norvegicus)
Construct: Twenty μm-thick striatal sections were cut; from tissue; host or cells: rat brain, striatal sections
Sequence (Q01062 whole entry): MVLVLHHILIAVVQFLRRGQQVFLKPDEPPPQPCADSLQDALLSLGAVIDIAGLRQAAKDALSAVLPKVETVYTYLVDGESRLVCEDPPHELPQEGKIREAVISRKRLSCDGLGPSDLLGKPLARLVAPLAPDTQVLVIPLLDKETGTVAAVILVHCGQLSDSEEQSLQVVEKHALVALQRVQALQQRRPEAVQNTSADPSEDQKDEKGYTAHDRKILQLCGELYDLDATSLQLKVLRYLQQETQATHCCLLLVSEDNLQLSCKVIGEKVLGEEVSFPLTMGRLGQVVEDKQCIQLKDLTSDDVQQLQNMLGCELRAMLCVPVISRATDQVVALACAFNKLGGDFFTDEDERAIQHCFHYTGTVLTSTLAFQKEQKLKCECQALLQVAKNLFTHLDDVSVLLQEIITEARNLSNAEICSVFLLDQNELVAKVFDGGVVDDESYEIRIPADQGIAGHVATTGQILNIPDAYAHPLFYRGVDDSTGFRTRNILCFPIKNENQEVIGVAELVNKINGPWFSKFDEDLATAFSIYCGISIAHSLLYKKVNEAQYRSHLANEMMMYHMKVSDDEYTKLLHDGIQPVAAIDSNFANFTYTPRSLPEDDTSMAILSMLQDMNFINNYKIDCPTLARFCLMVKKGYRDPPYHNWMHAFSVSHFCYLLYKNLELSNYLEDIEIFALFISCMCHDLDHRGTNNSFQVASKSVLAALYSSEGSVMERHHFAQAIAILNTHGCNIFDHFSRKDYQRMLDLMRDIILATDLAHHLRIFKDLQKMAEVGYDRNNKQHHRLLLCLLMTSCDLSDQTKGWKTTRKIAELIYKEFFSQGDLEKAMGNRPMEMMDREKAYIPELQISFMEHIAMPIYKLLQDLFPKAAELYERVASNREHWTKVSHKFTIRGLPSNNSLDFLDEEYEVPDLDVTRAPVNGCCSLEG
Test: PDE2 occupancy by test compounds, ex-vivo autoradiography with [3H]B-17a
Format: in vivo, Male Wistar rats
Conditions: po, 10 mg/kg, route PO (oral), percentage receptor occupancy, ex-vivo autoradiography, striatum
Give the quantity in %, number only.

-- ask receptor occupancy at 10 mg/kg of COc1cc(C(=O)N2CC[C@@H](C)[C@H](c3cc(C)nc4ncnn34)C2)cc(Cl)n1 on PDE2A (Rattus norvegicus)?
-- reply 18

-- ask Checklist item: receptor occupancy at 10 mg/kg tested on PDE2A (Rattus norvegicus), entry Cc1cc(C(=O)N2CC[C@@H](C)[C@H](c3cc(C(F)F)nc4ncnn34)C2)c(Cl)cn1 , value?
-- reply 20

-- ask Please provide the recorded receptor occupancy at 10 mg/kg for C[C@@H]1CCN(C(=O)c2cc3c(nc2Cl)CCCC3)C[C@H]1c1cc(C(F)F)nc2ncnn12 , tested on PDE2A (Rattus norvegicus).
-- reply 1

-- ask Query the reported receptor occupancy at 10 mg/kg for PDE2A (Rattus norvegicus); item: Cc1cc(C(=O)N2CC[C@@H](C)[C@H](c3cc(C(F)F)nc4ncnn34)C2)cc(Cl)c1F
-- reply 21

-- ask GET /values?readout=receptor occupancy at 10 mg/kg&system=PDE2A (Rattus norvegicus)&item= Cc1cc([C@@H]2CN(C(=O)c3cc4cccnc4nc3C(F)(F)F)CC[C@H]2C)n2ncnc2n1
-- reply 2

-- ask receptor occupancy at 10 mg/kg of C[C@@H]1CCN(C(=O)c2cccc(C#N)c2)C[C@H]1c1cc(C(F)F)nc2ncnn12 on PDE2A (Rattus norvegicus)?
-- reply 8

-- ask Notebook: pull reported receptor occupancy at 10 mg/kg for PDE2A (Rattus norvegicus), entry CCCC[C@H]1CCN(C(=O)c2cc(C)nc(C)c2)C[C@@H]1c1cc(C(F)F)nc2ncnn12 (single isomer, unassigned)
-- reply -9

----------
Target: Human recombinant PDE10A (hPDE10A) (Homo sapiens, UniProt Q9Y233)
Construct: His tag (inferred from metal chelate purification); made in house; host or cells: Sf9 insect cells (baculovirus)
Sequence (Q9Y233 267-1055): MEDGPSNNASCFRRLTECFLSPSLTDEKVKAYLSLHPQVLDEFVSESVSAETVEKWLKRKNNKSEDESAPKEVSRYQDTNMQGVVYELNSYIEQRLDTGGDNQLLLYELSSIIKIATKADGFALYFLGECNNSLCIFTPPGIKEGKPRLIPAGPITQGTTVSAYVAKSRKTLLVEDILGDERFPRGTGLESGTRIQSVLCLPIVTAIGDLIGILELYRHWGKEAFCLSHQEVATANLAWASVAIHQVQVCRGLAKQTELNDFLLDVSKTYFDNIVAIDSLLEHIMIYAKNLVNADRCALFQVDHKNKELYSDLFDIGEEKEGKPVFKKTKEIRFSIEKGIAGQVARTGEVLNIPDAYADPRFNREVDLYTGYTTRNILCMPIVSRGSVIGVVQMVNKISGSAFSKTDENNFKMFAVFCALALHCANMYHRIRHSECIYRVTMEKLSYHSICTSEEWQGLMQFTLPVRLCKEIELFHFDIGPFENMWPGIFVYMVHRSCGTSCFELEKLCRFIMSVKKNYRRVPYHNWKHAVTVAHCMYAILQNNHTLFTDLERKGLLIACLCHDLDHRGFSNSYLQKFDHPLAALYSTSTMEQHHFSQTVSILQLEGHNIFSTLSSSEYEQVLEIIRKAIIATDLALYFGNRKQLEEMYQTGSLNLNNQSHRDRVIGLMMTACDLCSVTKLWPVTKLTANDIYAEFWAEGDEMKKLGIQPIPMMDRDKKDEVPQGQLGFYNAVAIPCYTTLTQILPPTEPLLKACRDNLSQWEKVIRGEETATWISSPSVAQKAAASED
Assay: In vitro assay PDE10A, human clone (SPA, 3H-cAMP hydrolysis)
Type: biochemical
Details: human clone (h), default; read-out: hPDE10A2 pIC50 (converted)
observation_type: IC50 (nM)
Just the number in nM, nothing appended.

-- ask Recorded IC50 for COc1cc(C(=O)N2CC[C@@H](C)[C@H](c3cc(C(F)F)nc4ncnn34)C2)cc(C2CC2)n1 with Human recombinant PDE10A (hPDE10A) (Homo sapiens, UniProt Q9Y233), please?
-- reply 38

-- ask Please tell me: IC50 of Cc1nc2ccncc2cc1C(=O)N1CC[C@@H](C)[C@H](c2cc(C(F)F)nc3ncnn23)C1 , system Human recombinant PDE10A (hPDE10A) (Homo sapiens, UniProt Q9Y233)?
-- reply 1380

-- ask So what IC50 did C[C@@H]1CCN(C(=O)c2cccnc2N)C[C@H]1c1cc(C(F)F)nc2ncnn12 get with Human recombinant PDE10A (hPDE10A) (Homo sapiens, UniProt Q9Y233)?
-- reply 3550

-- ask Field: IC50 (Human recombinant PDE10A (hPDE10A) (Homo sapiens, UniProt Q9Y233)). Entry: Cc1ccc(F)c(C(=O)N2CC[C@@H](C)[C@@H](c3cc(C(F)F)nc4ncnn34)C2)n1
-- reply 6760

-- ask GET /values?readout=IC50&system=Human recombinant PDE10A (hPDE10A) (Homo sapiens, UniProt Q9Y233)&item= C[C@@H]1CCN(C(=O)c2ccc(F)c(OC(F)F)c2)C[C@H]1c1cc(C(F)F)nc2ncnn12
-- reply 138

-- ask Write down the reported IC50 of COc1c(F)cc(C(=O)N2CC[C@@H](C)[C@H](c3cc(C(F)F)nc4ncnn34)C2)cc1F , test system: Human recombinant PDE10A (hPDE10A) (Homo sapiens, UniProt Q9Y233).
-- reply 155

----------
Answer each item with its documented IC50.
Target: Human recombinant PDE10A (hPDE10A) (Homo sapiens)
Construct: His tag (inferred from metal chelate purification); made in house; host or cells: Sf9 insect cells (baculovirus)
Test: In vitro assay PDE10A, human clone (SPA, 3H-cAMP hydrolysis)
Assay type: biochemical
Conditions: human clone by default (no (r) mark); read-out: hPDE10A2 or rPDE10A2 pIC50 (converted)

-- ask Reported IC50, molecule Cc1oncc1C(=O)N1CC[C@@H](C)[C@H](c2cc(C(F)F)nc3ncnn23)C1 : ____
-- reply 2950 nM

-- ask Suppose we examine the molecule C/C(=C\c1ccc(F)cc1)C(=O)N1[C@H]2CC[C@H](c3cc(C(F)F)nc4ncnn34)[C@@H]1CC2 ; what IC50 value has been reported?
-- reply 661 nM

-- ask # lookup: IC50 of COc1cc(C(=O)N2CC[C@@H](C)[C@H](c3cc(C(F)F)nc4ncnn34)C2)cc(OC)n1
-- reply 55 nM

-- ask # IC50 lookup, item Cc1cc(C(=O)N2[C@H]3CC[C@@H]2[C@H](c2cc(C(F)F)nc4ncnn24)CC3)cc(C(F)(F)F)n1
-- reply > 10000 nM

-- ask IC50 for C[C@@H]1CCN(C(=O)c2ccc(F)cn2)C[C@H]1c1cc(C(F)F)nc2ncnn12 ?
-- reply 8710 nM

-- ask Item under review: Cc1cc(C(=O)N2CC[C@@H](C)[C@H](c3cc(C(F)F)nc4ncnn34)C2)c(F)c(C2CC2)n1 . Reported IC50?
-- reply 145 nM

-- ask So what's the measured IC50 for this one? Cc1ccc(C(=O)N2[C@H]3CC[C@H](c4cc(C(F)F)nc5ncnn45)[C@@H]2CC3)s1
-- reply 1780 nM
